Molecular target: T1, PD1-hFc (human, UniProt Q15116 25-170)
T1 construct: extracellular domain; also called PD1-hFc protein; Human PD-1-Fc (S1420, Y-Biologics)
T1 sequence (Q15116 other isoform, or with tags, fused parts or gaps limits assumed): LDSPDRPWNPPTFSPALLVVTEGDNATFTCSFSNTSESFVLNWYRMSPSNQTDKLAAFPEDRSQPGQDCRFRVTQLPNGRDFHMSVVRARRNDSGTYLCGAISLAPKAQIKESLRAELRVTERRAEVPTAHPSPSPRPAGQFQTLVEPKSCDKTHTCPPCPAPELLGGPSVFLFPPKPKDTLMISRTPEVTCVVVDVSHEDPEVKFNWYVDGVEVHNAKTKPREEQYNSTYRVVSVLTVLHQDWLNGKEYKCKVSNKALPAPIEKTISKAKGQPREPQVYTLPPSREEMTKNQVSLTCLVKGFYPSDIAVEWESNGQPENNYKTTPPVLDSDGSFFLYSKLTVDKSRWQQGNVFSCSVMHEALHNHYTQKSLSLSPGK
Assay: SPR ProteOn XPR36, PD1-hFc immobilised, antibody as analyte
Each record here notes measured Kd.
measurement_type: Kd (nM)

{"columns": ["binder", "measurement_type", "readout_value"],
 "data": [
  ["PD1-49A2(A/2A6) (antibody, V domains shown, scFv-phage in the screening ELISA; whole IgG in the other assays; also called 49A2-2A6; PD1 49A2 2A6) VH: QVQLVESGGGVVQPGRSLRLSCAASGFTFKYYAMHWVRQAPGKGLEWVTVISYDGQYKYYADSVKGRFTISRDNSKNTLYLQMNSLRAEDTAVYYCTTTTFDSWGQGTLVTVSS VL: DIVMTQTPLSLPVTPGEAASISCRSSQSLLDSEDGNTYLDWYLQRPGQSPQLLIYTLSHRASGVPGRFSGSGSGTEFNLRISRVEAEDVGIYYCMQRVEFPFTFGQGTKVEIK", "Kd", 0.0691],
  ["PD1-45D6(A/5B2) (antibody, V domains shown, scFv-phage in the screening ELISA; whole IgG in the other assays; also called 45D6-5B2; PD1 45D6 5B2) VH: QVQLVESGGGVVQPGRSLRLSCAASGFTFSFYAMHWVRQAPGKGLEWVAVISYDGNDKYYADSVKGRFTISRDNSKNTLYLQMNSLRAEDTAVYYCVPTTFEYWGQGTLVTVSS VL: DIVMTQTPLSPPVTPGEPASISCRSSQSLLDSDDGNTYLDWYLQKPGQSPQLLIYTLSHRASGVPDRFSGSGSGTDFTLEISRVEAEDVGVYYCMQRRDFPFTFGQGTKLDIK", "Kd", 0.0582],
  ["PD1-49A2 (antibody, V domains shown, scFv-phage in the screening ELISA; whole IgG in the other assays; also called Parent 49A2) VH: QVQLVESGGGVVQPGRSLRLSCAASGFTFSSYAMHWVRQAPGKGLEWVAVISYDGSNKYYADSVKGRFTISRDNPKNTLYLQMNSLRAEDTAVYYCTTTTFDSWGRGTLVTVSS VL: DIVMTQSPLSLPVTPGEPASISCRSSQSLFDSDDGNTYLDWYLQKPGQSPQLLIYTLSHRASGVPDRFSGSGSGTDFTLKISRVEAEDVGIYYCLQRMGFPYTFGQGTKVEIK", "Kd", 0.237]
]}
